assay-system: BTK enzyme (recombinant full-length BTK, hBTK) (Homo sapiens)
Construct: recombinant protein from baculovirus-transfected Sf9 cells: full-length BTK, 6HIS-tag cleaved; 6HIS (cleaved yes)
Sequence (Q06187 whole entry): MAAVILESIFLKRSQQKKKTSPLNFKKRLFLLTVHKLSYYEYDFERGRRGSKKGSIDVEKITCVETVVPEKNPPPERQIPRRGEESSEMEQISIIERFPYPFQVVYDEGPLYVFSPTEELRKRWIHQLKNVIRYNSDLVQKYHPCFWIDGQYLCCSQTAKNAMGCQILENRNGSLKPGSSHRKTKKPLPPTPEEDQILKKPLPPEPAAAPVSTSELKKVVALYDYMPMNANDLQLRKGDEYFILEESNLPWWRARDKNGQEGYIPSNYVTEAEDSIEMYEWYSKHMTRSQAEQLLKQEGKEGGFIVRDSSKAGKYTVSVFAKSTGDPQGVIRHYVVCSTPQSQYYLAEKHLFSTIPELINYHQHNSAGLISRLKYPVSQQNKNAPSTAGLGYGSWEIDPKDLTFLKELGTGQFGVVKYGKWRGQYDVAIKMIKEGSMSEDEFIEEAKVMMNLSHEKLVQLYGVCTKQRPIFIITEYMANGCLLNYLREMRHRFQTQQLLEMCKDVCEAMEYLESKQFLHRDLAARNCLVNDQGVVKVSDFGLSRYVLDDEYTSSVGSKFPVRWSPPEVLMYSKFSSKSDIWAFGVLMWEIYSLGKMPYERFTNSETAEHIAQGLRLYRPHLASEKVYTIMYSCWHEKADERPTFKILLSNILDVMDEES
assay-remarks: Btk enzyme activity assay (LANCE TR-FRET)
assay-context: 60 minute compound & enzyme incubation, 50 pM hBTK, 25 μM ATP, read-out: BTK binding IC50
Protocol: BTK enzymatic activity was determined with the LANCE (Lanthanide Chelate Excite) TR-FRET (Time-resolved fluorescence resonance energy transfer) assay. […] After 60 minutes incubation with detection reagents, reaction plates were read on a PerkinElmer EnVision plate reader using standard TR-FRET protocol. […] Fluorescence intensity at both 665 nm (acceptor) and 615 nm (donor) are measured and a TR-FRET ratio calculated for each well (acceptor intensity/donor intensity). […]
endpoint-name: pIC50
Friendly reminder that pIC50 comes from taking -log10 of the concentration in mol/L.

Recorded results for 5 molecules are shown here.
IN: Which pIC50 value belongs to `CCOc1cc(C(=O)Nc2cc(C(F)(F)F)ccn2)ccc1-c1nc([C@@H]2CCCN(C#N)C2)n2ccnc(N)c12` ?
OUT: 9.17

IN: Which pIC50 value belongs to `N#CN1CCC[C@@H](c2nc(-c3ccc(C(=O)Nc4cc(C(F)(F)F)ccn4)cc3)c3c(N)nccn23)C1` ?
OUT: 8.44

IN: Which pIC50 value belongs to `COc1cc(C(=O)Nc2cc(C(F)(F)F)ccn2)ccc1-c1nc([C@H]2CN(C#N)CCO2)n2ccnc(N)c12` ?
OUT: 9.22

IN: Which pIC50 value belongs to `N#CN1CCC[C@@H](c2nc(-c3ccc(C(=O)Nc4cc(C(F)F)ccn4)cc3)c3c(N)nccn23)C1` ?
OUT: 9.54

IN: Which pIC50 value belongs to `N#CN1CCC[C@@H](c2nc(-c3ccc(C(=O)Nc4cc(C(F)(F)F)ccn4)cc3F)c3c(N)nccn23)C1` ?
OUT: 9.44

***
IN: Which pIC50 value belongs to `N#CN1CCC[C@@H](c2nc(-c3ccc(C(=O)Nc4cc(C(F)(F)F)ccn4)cc3)c3c(N)ncc(Cl)n23)C1` ?
OUT: 9.72

IN: Which pIC50 value belongs to `Cc1ccnc(NC(=O)c2ccc(-c3nc([C@@H]4CCCN(C#N)C4)n4ccnc(N)c34)cc2)c1` ?
OUT: 9.62
